# system.name: CDK4/Cyclin D3 complex (Homo sapiens)
# Construct: made in house; host or cells: insect cells co-infected with baculovirus vectors
# Sequence (P11802 whole entry): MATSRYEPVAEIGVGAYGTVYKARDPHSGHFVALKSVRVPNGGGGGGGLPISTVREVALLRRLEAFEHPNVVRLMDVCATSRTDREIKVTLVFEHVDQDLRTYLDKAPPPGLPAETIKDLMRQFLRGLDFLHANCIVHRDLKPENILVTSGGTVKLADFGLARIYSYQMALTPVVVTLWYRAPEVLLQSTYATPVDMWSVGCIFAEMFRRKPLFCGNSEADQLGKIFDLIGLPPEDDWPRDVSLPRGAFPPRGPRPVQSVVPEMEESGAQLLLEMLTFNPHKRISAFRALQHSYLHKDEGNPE
# Sequence (P30281 whole entry partner): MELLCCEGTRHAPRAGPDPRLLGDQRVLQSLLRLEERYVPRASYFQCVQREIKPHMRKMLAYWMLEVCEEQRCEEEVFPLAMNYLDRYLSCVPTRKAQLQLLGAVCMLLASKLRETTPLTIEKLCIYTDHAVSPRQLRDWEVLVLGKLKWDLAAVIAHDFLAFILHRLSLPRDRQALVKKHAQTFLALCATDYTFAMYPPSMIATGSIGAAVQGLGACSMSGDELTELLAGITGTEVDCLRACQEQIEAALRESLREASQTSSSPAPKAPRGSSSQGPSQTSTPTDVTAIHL
# assay.text: CDK4/Cyclin D assay
# Assay type: biochemical
# experimental.conditions: Table 2; at 100 (printed 100 or 100 μM)
result.type: inhibition at 100 µM

CCOC(=O)c1ccc(-c2csc(-c3sc(Nc4cc(OC)c(OC)c(OC)c4)nc3N)n2)cc1 ... 33%

Exam item: For Nc1nc(Nc2ccc(S(N)(=O)=O)cc2)sc1C1=NC2(O)OCCC2S1 (stereo not drawn) , what is its reported inhibition at 100 µM?
Marked response: < 0%

Exam item: For "COc1cc(Nc2nc(N)c(-c3nc(-c4ccc(F)cc4F)cs3)s2)cc(OC)c1OC" , what is its reported inhibition at 100 µM?
Marked response: < 0%

Exam item: For "CN(C)c1ccc(Nc2nc(N)c(-c3nn[nH]n3)s2)cc1" , what is its reported inhibition at 100 µM?
Marked response: 29%

Exam item: For "COc1cc(Nc2nc(N)c(C3=N[C@H](Cc4ccccc4)CO3)s2)cc(OC)c1OC" , what is its reported inhibition at 100 µM?
Marked response: < 0%

Exam item: For "Nc1nc(Nc2ccc(S(N)(=O)=O)cc2)sc1-c1nc(-c2ccc(-c3ccccc3)cc2)cs1" , what is its reported inhibition at 100 µM?
Marked response: < 0%
